Test: chemical genetic growth profiling, strain panel (AID 1159580);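 further: tested at 20 µM; growth read once vehicle control cultures reached saturation at 30 °C; 1 = growth at the plate median or of vehicle wells; lower values mean less growth of the strain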
Conditions: S. cerevisiae deletion strains, growth OD, locus YHR142W, strain chs7, active compounds read low
The whole screen tested about 5,500 compounds, of which about 2,000 (36%) were called active. Another 18% or so got no clear call; they are omitted. The list shows a part of the results.
In this section we review reported normalized growth values for a set of compounds.

compound	normalized growth
CC(=O)O[C@@H]1CC2C(C)(C)C(=O)C=C[C@]2(C)C2CC[C@@]3(C)[C@H](c4ccoc4)OC(=O)[C@H]4O[C@]43[C@@]21C (some centres undefined)	0.987
CC1(C)C(=O)C=C[C@@]2(C)C1C[C@@H](O)[C@]1(C)C2CC[C@@]2(C)[C@H](c3ccoc3)OC(=O)[C@H]3O[C@]321 (some centres undefined)	1.01
COC1=CC(=O)C(O)=C/C1=C\C=C\c1ccccc1	0.0751
CC1(C)C=CC(=O)[C@@]2(C)C1CC(=O)[C@]1(C)C2CC[C@@]2(C)[C@H](c3ccoc3)OC(=O)C3OC321 (some centres undefined)	0.999

###

Assay: chemical genetic growth profiling, strain panel (AID 1159580);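 further: tested at 20 µM; growth read once vehicle control cultures reached saturation at 30 °C; 1 = growth at the plate median or of vehicle wells; lower values mean less growth of the strain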
Conditions: S. cerevisiae deletion strains, growth OD, locus YNL067W, strain RPL9B, active compounds read low
Out of some 5,500 compounds screened, about 2,000 (36%) were called active. About 18% were inconclusive and are not listed. The list shows a part of the results.
Please use 1 for normalized growth under 1 and -1 for everything else, ties included.

chem_smiles	group
COc1cccc2c(C)cc(=O)[nH]c12	1
CCOC(=O)c1c(C)cc(O)cc1O	1
C=C[C@H]1CN2CC[C@H]1C[C@@H]2[C@@H](OC(=O)OCC)c1ccnc2ccc(OC)cc12	-1
CCCCCCCCCCCC1=C(O)C(=O)C=C(O)C1=O	1
CCC/C=C1\OC(=O)C2=C1CCC=C2	1

###

Experiment: chemical genetic growth profiling, strain panel (AID 1159580);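 further: tested at 20 µM; growth read once vehicle control cultures reached saturation at 30 °C; 1 = growth at the plate median or of vehicle wells; lower values mean less growth of the strain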
Details: S. cerevisiae deletion strains, growth OD, locus YIR030C, strain dcg1, active compounds read low
Screen size: about 5,500 compounds; about 2,000 (36%) were called active. Roughly 18% stayed inconclusive and do not appear here. The list shows a part of the results.
In this section we review reported normalized growth values for a set of compounds.
experimental_endpoint: normalized growth

compound	val
COc1ccc(-c2oc3c(CC=C(C)C)c(O[C@@H]4O[C@H](CO)[C@@H](O)[C@H](O)[C@H]4O)cc(O)c3c(=O)c2O[C@@H]2O[C@@H](C)[C@H](O)[C@@H](O)[C@H]2O)cc1	0.983
COc1cc(O)c2c(=O)c(O)c(-c3ccc(O)c(O)c3)oc2c1	1.01
O=C(OC1Cc2c(O)cc(O)cc2OC1c1cc(=O)c(O)c2c(O)c(O)cc(C3Oc4cc(O)cc(O)c4CC3O)c2c1)c1cc(O)c(O)c(O)c1 (centres undefined)	0.956
O=C(O[C@@H]1Cc2c(O)cc(O)cc2O[C@@H]1c1cc(O)c(=O)c2c(O)c(O)cc([C@H]3Oc4cc(O)cc(O)c4C[C@H]3O)c2c1)c1cc(O)c(O)c(O)c1	0.973

###

In this section we review reported normalized growth values for a set of compounds.
Test: chemical genetic growth profiling, strain panel (AID 1159580);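 further: tested at 20 µM; growth read once vehicle control cultures reached saturation at 30 °C; 1 = growth at the plate median or of vehicle wells; lower values mean less growth of the strain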
Details: S. cerevisiae deletion strains, growth OD, locus YBR160W, strain CDC28, active compounds read low
Screen size: about 5,500 compounds; about 2,000 (36%) were called active. Another 18% or so got no clear call; they are omitted. The list shows a part of the results.

chem_smiles	normalized growth
COCCCNC(=S)N/N=C\c1cc(Br)ccc1O	0.961 (inactive)
OC(COc1ccc(F)cc1)(c1ccccc1)c1ccccc1	0.951 (inactive)
Oc1c(Br)cc(Br)cc1/C=N\n1cnnc1	0.958 (inactive)
Cc1cc(Oc2ccc(C(F)(F)F)cc2NS(C)(=O)=O)cc(C)c1Cl	0.988 (inactive)
O=C(Nc1ccccc1)Nc1ccc(Cl)cc1[N+](=O)[O-]	0.964 (inactive)
Oc1c(Cl)cc(Cl)cc1C=Nc1ccc(Sc2ccccc2)nc1Sc1ccccc1	0.954 (inactive)
COCCCNC(=S)N/N=C\c1cc(Cl)cc(Cl)c1O	0.965 (inactive)
CCNC(=S)N/N=C\c1cc(Cl)cc(Cl)c1O	0.922 (inactive)
CC(C)(C)C(=O)NC(=S)N/N=C\c1cc(Cl)cc(Cl)c1O	0.94 (inactive)
O=[N+]([O-])c1cc(Cl)cc([N+](=O)[O-])c1Nc1ccccc1	0.918 (inactive)
CCOC(=O)N/N=C\c1cc(Cl)cc(Cl)c1O	0.938 (inactive)
Oc1c(Br)cc(Br)cc1C=Nc1ccccn1	0.965 (inactive)
